test system: myosin ATPase, Porcine Atria myofibrils; experiment: Myofibril ATPase assay, porcine atria myofibrils; type: biochemical; conditions: concentration required to reduce myosin ATP-ase activity by 25%; Porcine Atria Prep pCa 25 GEOM_MEAN
MEASURED_METRIC: Porcine Atria EC25 (Y75 value) (µM)

Example entries and their recorded answers appear below.
[
  {
    "MOLECULE": "CC(NC(=O)Cn1c(=O)[nH]c2ccccc2c1=O)C1CCCC1 (centres unmarked)",
    "MEASURED_METRIC": "Porcine Atria EC25 (Y75 value)",
    "RESULT_NUMBER": 100
  },
  {
    "MOLECULE": "C[C@H](NC(=O)Cn1c(=O)[nH]c2c(F)cccc2c1=O)c1ccc(F)cc1F",
    "MEASURED_METRIC": "Porcine Atria EC25 (Y75 value)",
    "RESULT_NUMBER": 63.31
  },
  {
    "MOLECULE": "Cc1cc(C#N)cnc1[C@H](C)NC(=O)Cn1c(=O)[nH]c2ccc(F)c(F)c2c1=O (single isomer, unassigned)",
    "MEASURED_METRIC": "Porcine Atria EC25 (Y75 value)",
    "RESULT_NUMBER": 5.931
  },
  {
    "MOLECULE": "C[C@@H](NC(=O)Cn1c(=O)[nH]c2ccccc2c1=O)c1ccncc1F (single isomer, unassigned)",
    "MEASURED_METRIC": "Porcine Atria EC25 (Y75 value)",
    "RESULT_NUMBER": 31.84
  },
  {
    "MOLECULE": "C[C@H](NC(=O)Cn1c(=O)[nH]c2cccc(F)c2c1=O)c1ccc(F)cc1F",
    "MEASURED_METRIC": "Porcine Atria EC25 (Y75 value)",
    "RESULT_NUMBER": 0.1312
  }
]

A = C[C@H](NC(=O)C(Cc1ccccc1)n1c(=O)[nH]c2ccccc2c1=O)c1ccc(F)cc1F (single isomer, unassigned)
B = C[C@H](NC(=O)Cn1c(=O)[nH]c2cc(Cl)ccc2c1=O)c1ccc(F)cc1F
Higher Porcine Atria EC25 (Y75 value) between A and B ? Let me know the label of the one you choose.
A
(A: 20.67 µM, B: 0.3539 µM)

* * *

target: myosin ATPase, Porcine Ventricle myofibrils (Sus scrofa, UniProt P79293); construct: Myofibrils from porcine cardiac muscle was isolated from the left ventricle of Yucatan minipigs; tissue Exemplar Genetics; host or cells: left ventricle of Yucatan minipigs, myofibrils; experiment: Myofibril ATPase assay, porcine ventricle myofibrils; type: biochemical, porcine (Yucatan minipigs); conditions: concentration required to reduce myosin ATP-ase activity by 25%; Porcine Ventricle Prep pCa 25 GEOM_MEAN
Sequence (P79293 whole entry): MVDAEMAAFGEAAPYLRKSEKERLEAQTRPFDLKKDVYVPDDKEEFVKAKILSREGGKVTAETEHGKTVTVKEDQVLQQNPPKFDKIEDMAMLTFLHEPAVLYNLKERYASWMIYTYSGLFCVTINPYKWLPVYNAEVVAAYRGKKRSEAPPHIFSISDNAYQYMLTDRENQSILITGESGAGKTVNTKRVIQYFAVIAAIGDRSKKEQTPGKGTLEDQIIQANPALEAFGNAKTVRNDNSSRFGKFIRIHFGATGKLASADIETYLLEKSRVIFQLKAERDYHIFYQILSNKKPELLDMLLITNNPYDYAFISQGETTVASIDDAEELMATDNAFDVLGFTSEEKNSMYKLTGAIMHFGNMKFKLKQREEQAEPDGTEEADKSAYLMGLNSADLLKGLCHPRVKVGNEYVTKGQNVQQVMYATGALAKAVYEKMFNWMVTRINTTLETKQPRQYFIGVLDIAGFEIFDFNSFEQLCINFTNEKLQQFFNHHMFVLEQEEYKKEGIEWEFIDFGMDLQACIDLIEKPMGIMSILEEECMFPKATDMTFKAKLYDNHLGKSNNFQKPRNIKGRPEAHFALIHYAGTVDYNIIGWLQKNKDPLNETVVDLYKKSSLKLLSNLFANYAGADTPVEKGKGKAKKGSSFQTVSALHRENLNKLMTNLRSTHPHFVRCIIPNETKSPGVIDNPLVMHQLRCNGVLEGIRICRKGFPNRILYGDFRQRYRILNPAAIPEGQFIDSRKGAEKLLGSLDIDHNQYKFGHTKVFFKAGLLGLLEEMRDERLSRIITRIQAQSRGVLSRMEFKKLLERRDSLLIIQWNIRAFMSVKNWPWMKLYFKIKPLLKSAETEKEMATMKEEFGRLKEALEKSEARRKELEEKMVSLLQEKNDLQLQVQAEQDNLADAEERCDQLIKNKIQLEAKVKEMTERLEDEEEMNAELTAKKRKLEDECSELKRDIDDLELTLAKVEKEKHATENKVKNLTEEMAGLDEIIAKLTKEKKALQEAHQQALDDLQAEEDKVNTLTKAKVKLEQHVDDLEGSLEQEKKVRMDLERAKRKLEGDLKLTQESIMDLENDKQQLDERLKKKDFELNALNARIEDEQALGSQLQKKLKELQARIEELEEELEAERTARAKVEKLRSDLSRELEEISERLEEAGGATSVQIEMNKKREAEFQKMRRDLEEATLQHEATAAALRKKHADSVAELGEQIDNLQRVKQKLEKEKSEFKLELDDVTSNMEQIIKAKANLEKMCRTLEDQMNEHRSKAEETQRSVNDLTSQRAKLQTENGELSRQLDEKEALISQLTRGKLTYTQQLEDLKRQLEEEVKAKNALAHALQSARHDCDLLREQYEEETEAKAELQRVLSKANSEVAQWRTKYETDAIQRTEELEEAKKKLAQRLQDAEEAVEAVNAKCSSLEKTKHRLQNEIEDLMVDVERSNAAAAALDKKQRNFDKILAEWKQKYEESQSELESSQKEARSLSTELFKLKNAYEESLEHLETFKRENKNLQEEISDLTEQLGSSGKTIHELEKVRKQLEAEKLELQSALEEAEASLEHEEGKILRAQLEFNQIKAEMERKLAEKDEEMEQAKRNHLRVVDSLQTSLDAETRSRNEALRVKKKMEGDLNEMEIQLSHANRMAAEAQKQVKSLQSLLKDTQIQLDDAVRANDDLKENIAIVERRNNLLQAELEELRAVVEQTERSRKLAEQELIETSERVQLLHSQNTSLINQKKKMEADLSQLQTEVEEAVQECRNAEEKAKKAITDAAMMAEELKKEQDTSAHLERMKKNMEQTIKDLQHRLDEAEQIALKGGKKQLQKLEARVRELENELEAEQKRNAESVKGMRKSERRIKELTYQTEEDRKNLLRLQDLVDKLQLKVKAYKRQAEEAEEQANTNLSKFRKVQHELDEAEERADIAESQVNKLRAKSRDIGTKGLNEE
MEASURED_METRIC: Porcine Ventricle EC25 (Y75 value) (nM)

[
  {
    "COMPOUND": "Cc1cccc2[nH]c(=O)n(CC(=O)N[C@@H](C)c3ccc(F)cc3F)c(=O)c12",
    "Porcine Ventricle EC25 (Y75 value), nM": 707
  }
]

a = C[C@H](NC(=O)Cn1c(=O)[nH]c2ccc(F)cc2c1=O)c1cnc(C#N)nc1 (single isomer, unassigned)
b = Cc1cc(C#N)cnc1[C@H](C)NC(=O)Cn1c(=O)[nH]c2ccc(F)c(F)c2c1=O (single isomer, unassigned)
c = C[C@H](NC(=O)Cn1c(=O)[nH]c2cccc(F)c2c1=O)c1ncc(C#N)cc1F (single isomer, unassigned)
d = CC(NC(=O)Cn1c(=O)[nH]c2ccccc2c1=O)c1cnn(C)c1 (stereo not shown)
e = C[C@H](NC(=O)Cn1c(=O)[nH]c2ccc(C#N)cc2c1=O)c1ncc(C#N)cc1F (single isomer, unassigned)
Which order do these items take when sorted by rising Porcine Ventricle EC25 (Y75 value)? List them. Quick reminder: the answer is the labels in the order asked.
c, a, e, b, d

The values you see were collected from patent US12559464B2.
